These entries and their values trace back to patent US20030068675.

- SUBJECT_OF_TEST: ZFP SBS#614 (synthetic)
- Sequence (chain, as listed by the source): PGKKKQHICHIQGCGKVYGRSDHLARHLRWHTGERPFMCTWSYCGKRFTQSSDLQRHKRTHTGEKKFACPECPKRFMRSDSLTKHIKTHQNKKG
- PROCEDURE_SUMMARY: EMSA
- CONDITION_DESCRIPTION: tags: MBP fusion
VALUE_TYPE: Kd (nM)
State the answer as a number, implicitly in nM.

// query For TTGGCTGGGC (dsDNA) DNA 1: TTGGCTGGGC DNA 2: GCCCAGCCAA , write its Kd.
// result 2
